src = patent US20240301071A1

Molecular target: T1, histidine-tagged human SIRPA v1 (Novoprotein) (human, UniProt P78324 31-370, limits assumed)
T1 construct: bought, soluble; also called huSIRPA; soluble huSIRPA; not shown: histidine tag
T1 sequence (P78324 31-370 limits assumed): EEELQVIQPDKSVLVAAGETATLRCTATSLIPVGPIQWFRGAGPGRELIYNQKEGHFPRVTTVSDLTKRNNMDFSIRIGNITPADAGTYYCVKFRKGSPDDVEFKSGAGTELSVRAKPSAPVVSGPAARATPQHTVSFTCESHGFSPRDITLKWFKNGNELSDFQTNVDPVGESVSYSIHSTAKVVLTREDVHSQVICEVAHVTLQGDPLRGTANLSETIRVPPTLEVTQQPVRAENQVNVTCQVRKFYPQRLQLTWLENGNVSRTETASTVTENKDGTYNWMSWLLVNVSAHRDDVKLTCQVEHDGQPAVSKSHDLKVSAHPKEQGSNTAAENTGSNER
Experiment: BLI (Octet), antibody on anti-human IgG Fc sensor, His-huSIRPA in solution, single-curve 1:1 fit
metric: koff (s⁻¹)
The reply should contain only the number, in s⁻¹.

A selection of reference data follows.
INSERT INTO assay_data (binder, metric, unitlabel, valuemeasured) VALUES
  ('3F9-16 (antibody, human IgG1, V domains shown, also called mAb 3F9-16) VH: EVQLLESGGGLVQPGGSLRLSCAASGFTFSSYAMSWVRQAPGKGLEWVATISEYGGSYTYYAESVKGRFTISRDNSKNTLYLQMNSLRAEDTAVYYCARPPYDDYYGGFRYWGQGTLVTVSS VL: DIQLTQSPSSLSASVGDRVTITCRASKSVSSGGYSYMHWYQQKPGKAPKLLIYLASNLESGVPSRFSGSGSGTDFTLTISSVQPEDFATYYCQHNRELPGTFGQGTKLEIK', 'koff', 's⁻¹', 0.000151),
  ('3F9-10 (antibody, human IgG1, V domains shown, also called mAb 3F9-10) VH: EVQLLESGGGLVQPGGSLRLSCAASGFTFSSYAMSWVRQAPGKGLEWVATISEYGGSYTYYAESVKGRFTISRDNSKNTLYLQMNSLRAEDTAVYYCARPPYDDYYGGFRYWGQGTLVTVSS VL: DIQLTQSPSSLSASVGDRVTITCRASKSVSSGGYSYMHWYQQKPGKAPKLLIYLASNLESGVPSRFSGSGSGTDFTLTISSVQPEDFATYYCQHNRELPSTFGQGTKLEIK', 'koff', 's⁻¹', 0.000201);

Fill in the blank: the reported koff of 3F9-4 (antibody, human IgG1, V domains shown, also called mAb 3F9-4) VH: EVQLLESGGGLVQPGGSLRLSCAASGFTFSSYAMSWVRQAPGKGLEWVATISEYGGSYTYYAESVKGRFTISRDNSKNTLYLQMNSLRAEDTAVYYCARPPYDDYYGGFAYWGQGTLVTVSS VL: DIQLTQSPSSLSASVGDRVTITCRASKSVSSGGYSYMHWYQQKPGKAPKLLIYLASNLESGVPSRFSGSGSGTDFTLTISSVQPEDFATYYCQHNRELPPTFGQGTKLEIK is ____.
0.000203
